target: UniProt P78329; experiment: Inhibition of CYP4F2-mediated gamma-tocopherol metabolism in human HepG2/C3A cells preincubated for 4 hrs and continued for 48 hrs; settings: read-out: ED50 (the source's name)
measure: pIC50
Give bare numbers, as −log10 of the molar value.

Would you mind telling me what pIC50 value was observed for `Cc1c(C)c2c(c(C)c1O)CC[C@@](C)(CCCCCCCCCn1ccnc1)O2` ?
9.00

---

biological target: CYP4F2 (Homo sapiens); test: Inhibition of CYP4F2-mediated gamma-tocopherol metabolism in human HepG2/C3A cells at 20 nM preincubated for 4 hrs and continued for 48 hrs; assay type: cell-based; settings: probe gamma-tocopherol
Sequence (P78329 whole entry): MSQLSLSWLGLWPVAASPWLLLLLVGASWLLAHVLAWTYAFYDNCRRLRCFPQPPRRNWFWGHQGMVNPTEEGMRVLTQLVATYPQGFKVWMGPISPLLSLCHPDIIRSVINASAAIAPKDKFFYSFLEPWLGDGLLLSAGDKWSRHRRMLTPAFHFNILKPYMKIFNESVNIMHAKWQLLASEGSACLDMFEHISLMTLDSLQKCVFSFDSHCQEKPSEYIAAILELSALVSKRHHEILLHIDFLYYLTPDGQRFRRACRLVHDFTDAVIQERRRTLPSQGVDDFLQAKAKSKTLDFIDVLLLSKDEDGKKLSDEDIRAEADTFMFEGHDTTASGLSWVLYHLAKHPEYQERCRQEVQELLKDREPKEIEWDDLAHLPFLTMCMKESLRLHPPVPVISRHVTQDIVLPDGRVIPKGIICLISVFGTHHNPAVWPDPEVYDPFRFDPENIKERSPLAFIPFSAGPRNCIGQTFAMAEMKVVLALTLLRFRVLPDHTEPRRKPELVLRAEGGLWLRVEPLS
measure: inhibition at 48 h, 0.02 µM (%)
Give bare numbers, in %.

Which measured inhibition at 48 h, 0.02 µM value corresponds to `Cc1c(C)c2c(c(C)c1O)CC[C@@](C)(CCCCCCCCCn1cncn1)O2` ?
42
